- test details: gradient 5% acetonitrile 3 min, to 50% in 2 min, to 85% in 15 min, held 3 min, 100 µL/min
- experimental conditions: column: Zorbax Extend-C18 2.1 x 50 mm; eluents: water / acetonitrile, 0.1% formic acid
Each entry below lists one item and its recorded RP-LC retention time value.
Write it as a number; the unit s goes unstated.

Some compounds with known RP-LC retention time results, for comparison:
- O=S(=O)(c1ccc2c(c1)CCC2)N1CCC(Cc2nc(-c3cccnc3)n[nH]2)C1 (centres undefined): 694
- CCCNC(=O)Cn1ccn2nc(-c3ccccc3)c(CO)c2c1=O: 684
- O=C(Cn1nc2n(c1=O)CCCCC2)N1CCN(c2ccc(F)cc2)CC1: 701

## Input Item O=C1c2ccccc2C(=O)N1CCSc1nnc2sc3ccccc3n12 has what recorded RP-LC retention time?
## Output 696
